test system: THRa homodimer (NR concentration 90 nM); test: PBM binding z-score (relative to random genomic background probes); higher = stronger binding; sequences stand for … in GC…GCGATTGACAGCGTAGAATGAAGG

| seq | PBM binding z-score |
| --- | --- |
| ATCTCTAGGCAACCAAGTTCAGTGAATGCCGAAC | -0.255 |
| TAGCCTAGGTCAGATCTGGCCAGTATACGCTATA | -0.423 |
| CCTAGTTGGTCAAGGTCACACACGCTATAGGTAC | 4.42 |
| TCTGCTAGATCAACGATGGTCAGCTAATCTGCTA | -1.71 |
| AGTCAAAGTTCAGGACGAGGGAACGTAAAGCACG | 0.19 |
| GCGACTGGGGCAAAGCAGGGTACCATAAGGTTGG | -0.383 |
| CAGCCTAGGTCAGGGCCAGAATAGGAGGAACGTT | 0.0772 |
| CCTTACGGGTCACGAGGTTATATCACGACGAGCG | 1.34 |
| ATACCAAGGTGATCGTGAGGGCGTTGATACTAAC | 1.23 |
| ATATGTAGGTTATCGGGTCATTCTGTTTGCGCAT | 2.96 |
| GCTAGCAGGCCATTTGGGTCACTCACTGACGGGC | 0.972 |
| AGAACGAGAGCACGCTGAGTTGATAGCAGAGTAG | -1.24 |
| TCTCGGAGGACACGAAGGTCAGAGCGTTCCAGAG | 0.835 |
| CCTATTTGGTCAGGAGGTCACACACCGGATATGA | 2.66 |
| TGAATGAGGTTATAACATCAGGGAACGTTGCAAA | -0.00143 |
| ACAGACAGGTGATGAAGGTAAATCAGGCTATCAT | -0.061 |
| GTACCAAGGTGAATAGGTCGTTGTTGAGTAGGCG | 0.601 |
| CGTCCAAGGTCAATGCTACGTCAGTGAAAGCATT | 1.75 |
| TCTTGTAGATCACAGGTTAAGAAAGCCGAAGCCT | -0.442 |
| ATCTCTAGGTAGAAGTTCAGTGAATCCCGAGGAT | -0.305 |
| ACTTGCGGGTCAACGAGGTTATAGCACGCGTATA | 1.31 |
| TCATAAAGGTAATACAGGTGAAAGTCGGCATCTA | 0.207 |
| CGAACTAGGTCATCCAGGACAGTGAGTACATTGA | 2.14 |
| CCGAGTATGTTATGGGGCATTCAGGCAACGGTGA | 0.125 |
| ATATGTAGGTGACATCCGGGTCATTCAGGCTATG | 2.11 |
| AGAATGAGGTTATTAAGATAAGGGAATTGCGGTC | 0.273 |
| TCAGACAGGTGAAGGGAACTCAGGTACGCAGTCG | 0.717 |
| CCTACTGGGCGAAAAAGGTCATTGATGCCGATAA | -0.0329 |
| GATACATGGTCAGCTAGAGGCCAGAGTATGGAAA | -1.01 |
| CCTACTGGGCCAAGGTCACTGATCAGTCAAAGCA | 2.65 |
| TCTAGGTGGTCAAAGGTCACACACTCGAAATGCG | 1.74 |
| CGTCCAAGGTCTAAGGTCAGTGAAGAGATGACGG | 3.24 |
| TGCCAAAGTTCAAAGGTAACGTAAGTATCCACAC | -0.0439 |
| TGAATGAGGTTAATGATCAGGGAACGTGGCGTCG | 0.6 |
| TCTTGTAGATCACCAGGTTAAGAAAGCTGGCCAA | 0.422 |
| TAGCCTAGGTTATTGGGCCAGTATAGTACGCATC | -0.377 |
| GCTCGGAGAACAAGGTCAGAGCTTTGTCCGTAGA | 0.95 |
| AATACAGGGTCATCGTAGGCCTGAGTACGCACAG | 1.25 |
| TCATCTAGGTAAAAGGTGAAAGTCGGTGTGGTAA | 0.446 |
| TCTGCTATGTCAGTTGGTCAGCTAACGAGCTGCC | -1.16 |
| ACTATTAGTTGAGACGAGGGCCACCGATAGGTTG | -0.379 |
| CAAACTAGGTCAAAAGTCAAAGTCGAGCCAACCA | 0.407 |
| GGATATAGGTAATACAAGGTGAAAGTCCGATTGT | 1.64 |
| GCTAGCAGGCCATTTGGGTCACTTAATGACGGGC | 0.181 |
| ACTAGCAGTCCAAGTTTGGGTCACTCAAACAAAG | 1.07 |
| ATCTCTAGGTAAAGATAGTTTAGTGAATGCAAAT | 0.117 |
